# target: T1, gp130 on HepG2 B6 cells (UniProt P40189 23-918, limits assumed)
# T1 sequence (looked up): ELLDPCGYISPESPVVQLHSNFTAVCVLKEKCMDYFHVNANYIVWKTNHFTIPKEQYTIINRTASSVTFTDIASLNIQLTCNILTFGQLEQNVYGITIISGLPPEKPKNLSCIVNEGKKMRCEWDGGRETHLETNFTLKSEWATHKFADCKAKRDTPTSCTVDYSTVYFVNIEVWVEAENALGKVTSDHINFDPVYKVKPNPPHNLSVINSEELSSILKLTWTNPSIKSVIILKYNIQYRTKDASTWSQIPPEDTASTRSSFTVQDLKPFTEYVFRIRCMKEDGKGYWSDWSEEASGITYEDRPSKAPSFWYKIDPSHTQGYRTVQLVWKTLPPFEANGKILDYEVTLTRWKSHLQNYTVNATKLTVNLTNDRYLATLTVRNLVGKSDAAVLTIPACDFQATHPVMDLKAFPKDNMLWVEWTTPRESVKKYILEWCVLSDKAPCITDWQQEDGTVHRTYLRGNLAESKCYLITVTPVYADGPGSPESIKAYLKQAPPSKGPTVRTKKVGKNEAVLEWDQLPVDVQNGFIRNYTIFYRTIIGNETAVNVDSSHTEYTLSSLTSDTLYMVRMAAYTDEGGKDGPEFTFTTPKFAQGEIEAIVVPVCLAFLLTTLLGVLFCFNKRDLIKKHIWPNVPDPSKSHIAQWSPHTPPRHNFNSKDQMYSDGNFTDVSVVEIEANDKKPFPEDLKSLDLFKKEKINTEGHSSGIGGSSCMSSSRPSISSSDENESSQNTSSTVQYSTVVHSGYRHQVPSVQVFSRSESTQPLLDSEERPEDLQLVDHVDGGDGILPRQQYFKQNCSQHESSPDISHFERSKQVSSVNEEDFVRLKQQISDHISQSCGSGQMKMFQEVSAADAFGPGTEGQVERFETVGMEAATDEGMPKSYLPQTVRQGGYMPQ
# assayProcedure: cell-based or functional assay
readout: sPAP HepG2 B6 assay: Mean % of wild type EC50

Here are 5 binders together with their reported answers.
# binder, measured
measured = [
    ("OSM-GST mutant G15A (ligand, Alanine mutant of m4; also called (8)G15A; 8 G15A; not shown: Its linker is left out) AAIGSCSKEYRVLLAQLQKQTDLMQDTSRLLDPYIRIQGLDVPKLREHCRERPGAFPSEETLRGLGRRGFLQTLNATLGCVLHRLADLEQRLPKAQDLERSGLNIEDLEKLQMARPNILGLRNNIYCMAQLLDNSDTAEPTKAGRGASQPPTPTPASDAFQRKLEGCRFLHGYHRFMHSVGRVFSKWGESPNRSRR", "71%"),
    ("OSM-GST mutant Y126A (ligand, not shown: a dimerising Fc or GST; large carriers; small tags and cut ends, Alanine mutant of m4; also called (24)Y126A; 24 Y126A) AAIGSCSKEYRVLLGQLQKQTDLMQDTSRLLDPYIRIQGLDVPKLREHCRERPGAFPSEETLRGLGRRGFLQTLNATLGCVLHRLADLEQRLPKAQDLERSGLNIEDLEKLQMARPNILGLRNNIACMAQLLDNSDTAEPTKAGRGASQPPTPTPASDAFQRKLEGCRFLHGYHRFMHSVGRVFSKWGESPNRSRR", "175%"),
    ("OSM-GST mutant L14A (ligand, Alanine mutant of m4; also called (7)L14A; 7 L14A; not shown: Its linker is left out) AAIGSCSKEYRVLAGQLQKQTDLMQDTSRLLDPYIRIQGLDVPKLREHCRERPGAFPSEETLRGLGRRGFLQTLNATLGCVLHRLADLEQRLPKAQDLERSGLNIEDLEKLQMARPNILGLRNNIYCMAQLLDNSDTAEPTKAGRGASQPPTPTPASDAFQRKLEGCRFLHGYHRFMHSVGRVFSKWGESPNRSRR", "79%"),
    ("OSM-GST mutant N123A (ligand, not shown: a dimerising Fc or GST; large carriers; small tags and cut ends, Alanine mutant of m4; also called (22)N123A; 22 N123A) AAIGSCSKEYRVLLGQLQKQTDLMQDTSRLLDPYIRIQGLDVPKLREHCRERPGAFPSEETLRGLGRRGFLQTLNATLGCVLHRLADLEQRLPKAQDLERSGLNIEDLEKLQMARPNILGLRANIYCMAQLLDNSDTAEPTKAGRGASQPPTPTPASDAFQRKLEGCRFLHGYHRFMHSVGRVFSKWGESPNRSRR", "156%"),
    ("OSM-GST mutant R11A (ligand, not shown: a dimerising Fc or GST; large carriers; small tags and cut ends, Alanine mutant of m4; also called (5)R11A; 5 R11A) AAIGSCSKEYAVLLGQLQKQTDLMQDTSRLLDPYIRIQGLDVPKLREHCRERPGAFPSEETLRGLGRRGFLQTLNATLGCVLHRLADLEQRLPKAQDLERSGLNIEDLEKLQMARPNILGLRNNIYCMAQLLDNSDTAEPTKAGRGASQPPTPTPASDAFQRKLEGCRFLHGYHRFMHSVGRVFSKWGESPNRSRR", "102%"),
]

Switching to the query record.
Data point: OSM-GST mutant D22A (ligand, not shown: a dimerising Fc or GST; large carriers; small tags and cut ends, Alanine mutant of m4; also called (15)D22; 15 D22) AAIGSCSKEYRVLLGQLQKQTALMQDTSRLLDPYIRIQGLDVPKLREHCRERPGAFPSEETLRGLGRRGFLQTLNATLGCVLHRLADLEQRLPKAQDLERSGLNIEDLEKLQMARPNILGLRNNIYCMAQLLDNSDTAEPTKAGRGASQPPTPTPASDAFQRKLEGCRFLHGYHRFMHSVGRVFSKWGESPNRSRR ; sPAP HepG2 B6 assay: Mean % of wild type EC50 = 101%

Each recorded value in this set is attributed to patent US6706266.
